Test system: α-glucosidase
Assay: α-glucosidase inhibition assay
Type: biochemical
Details: at 0.5 mM; mean ± S.E.M., n = 3
attribute.measured: α-glucosidase (%) inhibition

>>> readout_number("CC(Sc1nnc(Cc2c[nH]c3ccccc23)o1)C(=O)NCCc1ccccc1 (stereo not shown)")
93.38
>>> readout_number("CCc1ccccc1NC(=O)C(C)Sc1nnc(Cc2c[nH]c3ccccc23)o1 (stereo not shown)")
98.21
>>> readout_number("C[C@H]1O[C@H](O[C@H]2[C@H](O)[C@@H](O)[C@@H](O[C@H]3[C@H](O)[C@@H](O)C(O)O[C@@H]3CO)O[C@@H]2CO)[C@H](O)[C@@H](O)[C@@H]1N[C@H]1C=C(CO)[C@@H](O)[C@H](O)[C@H]1O (stereo partly shown) [acarbose, reference compound]")
92.23
>>> readout_number("COC(=O)c1ccccc1NC(=O)C(C)Sc1nnc(Cc2c[nH]c3ccccc23)o1 (stereo not shown)")
97.56
